System: CHO
Test: Cytotoxicity against p-glycoprotein overexpressing CHO cells
Format: cell-based
Conditions: Cricetulus griseus
For each record, write down the corresponding pIC50.
// pIC50: -log10(molar conc.)

Exercise: Can you look up pIC50 on CHO for CC(C)=CCc1c(O)ccc2c1O[C@H]1c3ccc(O)cc3OC[C@@H]21 ?
Solution: 5.12

Exercise: # returns recorded pIC50 (system: CHO) for COc1ccc2c(c1CC=C(C)C)O[C@H]1c3ccc(O)cc3OC[C@@]21O
Solution: 5.40

Reference source for all entries: ChEMBL document CHEMBL1147389
